Tested on: HEK293-SIE STAT3 Y640F
measurement.description: drug sensitivity score (inhibition of STAT3 luciferase reporter); higher = stronger inhibition
study.conditions: 6 h; IL6 0 ng/ml
recorded.endpoint: drug sensitivity score
Please format your answer as a value with the unit trailing.

Reference set, count: 5
* CCNC(=O)c1noc(-c2cc(C(C)C)c(O)cc2O)c1-c1ccc(CN2CCOCC2)cc1 [Luminespib] | 12.8 DSS
* O=C(NC[C@H](O)CO)c1ccncc1Nc1ccc(I)cc1F [Pimasertib] | 2.03 DSS
* COc1cc(Nc2ncc(F)c(Nc3ccc4c(n3)NC(=O)C(C)(C)O4)n2)cc(OC)c1OC [Tamatinib] | 0 DSS
* CC1(C)CCC(c2ccc(Cl)cc2)=C(CN2CCN(c3ccc(C(=O)NS(=O)(=O)c4ccc(N[C@H](CCN5CCOCC5)CSc5ccccc5)c(S(=O)(=O)C(F)(F)F)c4)cc3)CC2)C1 [Navitoclax] | 0.5 DSS
* Cc1[nH]c2ccccc2c1CCNCc1ccc(/C=C/C(=O)NO)cc1 [Panobinostat] | 4.7 DSS

State the recorded drug sensitivity score for every item in the following list.
1. Cn1c(=O)n(-c2ccc(C(C)(C)C#N)cc2)c2c3cc(-c4cnc5ccccc5c4)ccc3ncc21 [Dactolisib]
2. CNC(=O)c1cc(Oc2ccc(NC(=O)Nc3ccc(Cl)c(C(F)(F)F)c3)c(F)c2)ccn1 [Regorafenib]
3. Cc1cc(Nc2cc(CN3CCOCC3)c3nc(C)c(Cc4ccc(Cl)cc4F)n3n2)n[nH]1 [Gandotinib]
4. O=[N+]([O-])c1ccc2c(c1)S(=O)(=O)C=C2 [Stattic]
5. CC1(C)CCC(CN2CCN(c3ccc(C(=O)NS(=O)(=O)c4ccc(NCC5CCOCC5)c([N+](=O)[O-])c4)c(Oc4cnc5[nH]ccc5c4)c3)CC2)=C(c2ccc(Cl)cc2)C1 [Venetoclax]

Reply:
["12.8 DSS", "5.5 DSS", "8.4 DSS", "7.37 DSS", "1.5 DSS"]

----------
Assign drug sensitivity score to each entry below.
Test system: HEK293-SIE STAT3 Y640F
measurement.description: drug sensitivity score (inhibition of STAT3 luciferase reporter); higher = stronger inhibition
study.conditions: 6 h; IL6 0 ng/ml
Give bare numbers, in DSS.

Reference set, count: 2
* C[C@@H]1CCN(C(=O)CC#N)C[C@@H]1N(C)c1ncnc2[nH]ccc12 [Tofacitinib] | 9.05
* COc1ccc(-c2ccc3c(N4CCOC[C@@H]4C)nc(N4CCOC[C@@H]4C)nc3n2)cc1CO [AZD8055] | 18.6

Query: Recorded drug sensitivity score of Cc1c2oc3c(C)ccc(C(=O)N[C@@H]4C(=O)N[C@H](C(C)C)C(=O)N5CCC[C@H]5C(=O)N(C)CC(=O)N(C)[C@@H](C(C)C)C(=O)O[C@@H]4C)c3nc-2c(C(=O)N[C@@H]2C(=O)N[C@H](C(C)C)C(=O)N3CCC[C@H]3C(=O)N(C)CC(=O)N(C)[C@@H](C(C)C)C(=O)O[C@@H]2C)c(N)c1=O [Dactinomycin] , please.
Reply: 18.4

----------
System: YT
measurement.description: drug sensitivity score (viability inhibition); higher = more sensitive
study.conditions: 72 h; IL2 2.5 ng/ml
So basically: drug sensitivity score at 7 DSS or higher? That is class 1. Lower than 7 DSS? That is class 0.

Query: Is it the case that `C[C@]12C=CC(=O)C=C1CC[C@@H]1[C@@H]2[C@@H](O)C[C@@]2(C)[C@H]1CC[C@]2(O)C(=O)CO` has drug sensitivity score reaching or exceeding 7 DSS?
Reply: class 0

Query: Is it the case that `Cc1ccc(C(=O)Nc2ccc(CN3CCN(C)CC3)c(C(F)(F)F)c2)cc1C#Cc1cnc2cccnn12` has drug sensitivity score reaching or exceeding 7 DSS?
Reply: class 0

Query: Is it the case that `Cc1c2oc3c(C)ccc(C(=O)N[C@@H]4C(=O)N[C@H](C(C)C)C(=O)N5CCC[C@H]5C(=O)N(C)CC(=O)N(C)[C@@H](C(C)C)C(=O)O[C@@H]4C)c3nc-2c(C(=O)N[C@@H]2C(=O)N[C@H](C(C)C)C(=O)N3CCC[C@H]3C(=O)N(C)CC(=O)N(C)[C@@H](C(C)C)C(=O)O[C@@H]2C)c(N)c1=O` has drug sensitivity score reaching or exceeding 7 DSS?
Reply: class 1
